test system: HeLa cells; assay: Compound screen by flow cytometry: HeLa cell count as surrogate readout of cell viability (z-scoreHeLa); format: cell-based, human; settings: PKIS compound screen raw data, HeLa cell count, replicate 1
Measure Name: cell count rep 1

[[record]]
molecule = "Cc1c2ccc(N(C)c3ccnc(Nc4cccc(S(N)(=O)=O)c4)n3)cc2nn1C [GW771127A]"
recorded_measurement = 10020

[[record]]
molecule = "CC(C)c1nc(-c2ccc(F)c(NS(=O)(=O)c3c(F)cccc3F)c2)c(-c2ccnc(Nc3ccc(N4CCOCC4)nc3)n2)s1 [GSK1804250A]"
recorded_measurement = 20970

[[record]]
molecule = "CC(C)S(=O)(=O)N1CCN(Cc2ccc3c(c2)nc(NC(=O)c2ccsc2)n3C[C@H](O)c2ccccc2)CC1 [GW635815X]"
recorded_measurement = 31634

[[record]]
molecule = "O=C1Nc2ccc(C(=O)c3ccco3)cc2C1=Cc1cc(Cl)c(O)c(Cl)c1 [GW406108X]"
recorded_measurement = 28408

[[record]]
molecule = "COc1ccc(Nc2nccc(N3CCC(NC(=O)c4cc5ccccc5s4)C3)n2)cc1 (centres unmarked) [GSK1379738A]"
recorded_measurement = 35022

[[record]]
molecule = "O=c1cc(N2CCOCC2)nc2n(Cc3cccc4ccccc34)ccn12 [GSK2333389A]"
recorded_measurement = 20901

[[record]]
molecule = "Fc1cc(Cl)ccc1Nc1ccnc2cc(-c3ccc(CN4CCCCC4)o3)ccc12 [GW560116X]"
recorded_measurement = 2203

[[record]]
molecule = "O=C(Nc1n[nH]c2cc(-c3cccc(F)c3F)ccc12)C1CC1"
recorded_measurement = 4632


---

System: HeLa cells
Test: Compound screen by flow cytometry: HeLa cell count as surrogate readout of cell viability (z-scoreHeLa)
Assay type: cell-based, human
Conditions: PKIS compound screen, HeLa cell count, replicate 3
Method: The cells were resuspended in cell culture medium without antibiotics, seeded with 10,000 cells/well into Costar flat-bottom 96-well plates (Corning, Amsterdam, the Netherlands), and were incubated overnight at 37°C/5% CO2. […] The calculated mean MOI throughout all experiments was 6.8 ± 4.6 (mean ± SD). […] HeLa cells were harvested by trypsinization and fixed with 1% paraformaldehyde. Samples were measured on a FACSLyric with HTS extension (BD Biosciences). […]
Note that class boundaries on z-scoreHeLa rep 3 are low band = under -0.3, middle band = from -0.3 up to 0.3, high band = 0.3 and over

[[record]]
compound = "COc1cc(Nc2nccc(N3CCC(NC(=O)c4cc5ccccc5s4)C3)n2)cc(OC)c1OC (stereo not shown) [GSK1379760A]"
target_or_system = "HeLa cells"
class_label = "high band"

[[record]]
compound = "O=c1cc(N2CCOCC2)nc2n(Cc3cccc4ccccc34)ccn12 [GSK2333389A]"
target_or_system = "HeLa cells"
class_label = "low band"

[[record]]
compound = "CS(=O)(=O)CCNCc1cc(-c2cc3c(Nc4ccc(OCc5cccc(F)c5)c(Cl)c4)ncnc3s2)cs1 [GSK300014A]"
target_or_system = "HeLa cells"
class_label = "high band"

[[record]]
compound = "CCS(=O)(=O)c1ccc(OC)c(Nc2nccc(N(C)c3ccc4c(C)n[nH]c4c3)n2)c1 [GW654652C]"
target_or_system = "HeLa cells"
class_label = "low band"

[[record]]
compound = "O=C(NC1CCN(c2ccnc(Nc3ccc(F)cc3)n2)C1)c1cc2ccccc2s1 (stereo not shown) [GSK1379716A]"
target_or_system = "HeLa cells"
class_label = "low band"

[[record]]
compound = "c1ccc(-c2cc3ccncc3cc2OC2CCNCC2)cc1 [GSK1122999D]"
target_or_system = "HeLa cells"
class_label = "high band"

[[record]]
compound = "CN(c1ccc2c(c1)nc(NCc1ccc(F)cc1)n2C)c1ccnc(Nc2ccc(CS(C)(=O)=O)cc2)n1 [GW813244A]"
target_or_system = "HeLa cells"
class_label = "low band"

[[record]]
compound = "Cc1nn2c(=O)cc(N3CCOCC3)nc2n1Cc1cccc(Cl)c1Cl [GSK2342769A]"
target_or_system = "HeLa cells"
class_label = "high band"

[[record]]
compound = "c1ccc(-c2n[nH]cc2Nc2ccnc3ccccc23)nc1 [GW694077X]"
target_or_system = "HeLa cells"
class_label = "middle band"

[[record]]
compound = "Cc1c(Cn2ccn3c(=O)cc(N4CCOCC4)nc23)cccc1C(F)(F)F [GSK2289044B]"
target_or_system = "HeLa cells"
class_label = "low band"

[[record]]
compound = "COc1cc2c(Nc3cccc(NC(=O)c4ccccc4)c3)ncnc2cc1OCCCN1CCOCC1 [GSK223810A]"
target_or_system = "HeLa cells"
class_label = "high band"

[[record]]
compound = "O=C(Nc1n[nH]c2nc(-c3ccccc3)c(Br)cc12)C1CC1"
target_or_system = "HeLa cells"
class_label = "middle band"

[[record]]
compound = "NS(=O)(=O)c1cccc(-c2cc3ccncc3cc2OCc2ccccc2)c1 [GSK980961A]"
target_or_system = "HeLa cells"
class_label = "middle band"

[[record]]
compound = "Cc1cn2c(=O)cc(N3CCOCC3)nc2n1Cc1cccc(Cl)c1Cl [GSK2334006A]"
target_or_system = "HeLa cells"
class_label = "high band"

[[record]]
compound = "Cc1ccc(NC(=O)c2ccnc(N3CCN(C)CC3)c2)cc1-c1ccc(C(=O)NCC2CC2)cc1 [GW775604X]"
target_or_system = "HeLa cells"
class_label = "middle band"

[[record]]
compound = "Cc1cccc(-c2nc(Nc3cccc(C(N)=O)c3)c3ccccc3n2)n1 [GW876019X]"
target_or_system = "HeLa cells"
class_label = "low band"


---

tested on: HeLa cells; test: Compound screen by flow cytometry: HeLa cell count as surrogate readout of cell viability (z-scoreHeLa); type: cell-based, human; conditions: PKIS compound screen raw data, HeLa cell count, replicate 2
Measure Name: cell count rep 2

[[record]]
compound = "Fc1cc(Cl)ccc1Nc1ccnc2cc(-c3ccc(CN4CCCCC4)o3)ccc12 [GW560116X]"
measure_name = "cell count rep 2"
recorded_measurement = 2204

[[record]]
compound = "COc1cc(Nc2nccc(N3CCC(NC(=O)c4cc5ccccc5s4)C3)n2)cc(OC)c1OC (stereo not shown) [GSK1379760A]"
measure_name = "cell count rep 2"
recorded_measurement = 36298

[[record]]
compound = "CC(C(=O)NC1CCN(c2ccnc(Nc3ccc(F)cc3)n2)C1)c1ccc(Cl)cc1 (stereo not shown) [GSK1379713A]"
measure_name = "cell count rep 2"
recorded_measurement = 5528

[[record]]
compound = "O=c1cc(N2CCOCC2)nc2n(Cc3cccc(Cl)c3Cl)c(C3CC3)nn12 [GSK2358994A]"
measure_name = "cell count rep 2"
recorded_measurement = 35107


---

System: HeLa cells
Assay: Compound screen by flow cytometry: HeLa cell count as surrogate readout of cell viability (z-scoreHeLa)
Format: cell-based, human
Conditions: compound screen, HeLa cell count, replicate 1
Procedure: The cells were resuspended in cell culture medium without antibiotics, seeded with 10,000 cells/well into Costar flat-bottom 96-well plates (Corning, Amsterdam, the Netherlands), and were incubated overnight at 37°C/5% CO2. […] The calculated mean MOI throughout all experiments was 6.8 ± 4.6 (mean ± SD). […] HeLa cells were harvested by trypsinization and fixed with 1% paraformaldehyde. Samples were measured on a FACSLyric with HTS extension (BD Biosciences). […]
Measure Name: z-scoreHeLa rep 1

[[record]]
molecule = "Cc1cccc(-c2nc(Nc3ccncc3)c3ccccc3n2)n1 [GW855857X]"
target_or_system = "HeLa cells"
recorded_measurement = -0.88

[[record]]
molecule = "COc1ccc(CNC(=O)NC2CCN(c3ccnc(Nc4cc(OC)c(OC)c(OC)c4)n3)C2)cc1 (stereo not shown) [GSK1379748A]"
target_or_system = "HeLa cells"
recorded_measurement = 0.87

[[record]]
molecule = "CC(C)c1ccc2c(c1)NC(=O)C2=NNc1ccc(S(N)(=O)=O)cc1 [GW300653X]"
target_or_system = "HeLa cells"
recorded_measurement = -0.98

[[record]]
molecule = "Cc1nnc(-c2ccc(C)c(-c3ccc(C(=O)Nc4ccc(NS(C)(=O)=O)cc4)cc3)c2)o1 [GW702865X]"
target_or_system = "HeLa cells"
recorded_measurement = -0.64

[[record]]
molecule = "Nc1ncc(-c2ccncc2)c2scc(-c3ccc4c(c3)CCN4C(=O)Cc3ccccc3)c12 [GSK2592465A]"
target_or_system = "HeLa cells"
recorded_measurement = 0.40

[[record]]
molecule = "CN(C)CCOc1ccc(-c2cc(-c3ccc(Cl)c(O)c3)c(-c3ccncc3)[nH]2)cc1.Cl.Cl"
target_or_system = "HeLa cells"
recorded_measurement = 1.91

[[record]]
molecule = "COC(=O)Nc1nc2ccc(Oc3ccc(NC(=O)Nc4cc(C(F)(F)F)ccc4Cl)cc3)cc2[nH]1 [GW697465A]"
target_or_system = "HeLa cells"
recorded_measurement = 0.21

[[record]]
molecule = "Cc1cccc(-c2nc(Nc3ccc4c(cnn4C)c3)c3ccccc3n2)n1 [GW876731X]"
target_or_system = "HeLa cells"
recorded_measurement = -0.19

[[record]]
molecule = "COc1cc(C=NNc2ncnc3c2cnn3-c2ccccc2)ccc1O [GW513184X]"
target_or_system = "HeLa cells"
recorded_measurement = -0.98

[[record]]
molecule = "Cc1cc(N2Cc3ccccc3C2)nc(Nc2ccc(S(=O)(=O)N3CCOCC3)cc2)n1 [GSK1669917A]"
target_or_system = "HeLa cells"
recorded_measurement = 0.87

[[record]]
molecule = "O=C(NCCNc1ccnc(Nc2ccc(F)cc2)n1)Nc1ccccc1F [GSK1379880A]"
target_or_system = "HeLa cells"
recorded_measurement = 0.22

[[record]]
molecule = "O=C(c1ccc(-c2cc(-c3c[nH]nc3-c3ccccn3)ccn2)cc1)N1CCCC1 [GW792479X]"
target_or_system = "HeLa cells"
recorded_measurement = -0.13

[[record]]
molecule = "Nc1nonc1-c1nc2cnccc2n1C1CCCCC1"
target_or_system = "HeLa cells"
recorded_measurement = -1.90

[[record]]
molecule = "Cc1ccc(C)c(NC(=O)NCCNc2ccnc(Nc3ccc(F)cc3)n2)c1 [GSK1379878A]"
target_or_system = "HeLa cells"
recorded_measurement = -1.22

[[record]]
molecule = "CNc1nc(-c2ccc3c(N)n[nH]c3c2)cc(N2C[C@@H](C(=O)NC3CCCCC3)OC[C@H]2C)n1 [GSK2375584A]"
target_or_system = "HeLa cells"
recorded_measurement = 0.09

[[record]]
molecule = "COc1cc(Nc2ncc(-c3ccccc3)o2)cc(OC)c1OC [GW627512B]"
target_or_system = "HeLa cells"
recorded_measurement = -2.18

[[record]]
molecule = "CS(=O)(=O)CCNCc1nc(-c2ccc3ncnc(Nc4ccc(OCc5ccccc5)c(Cl)c4)c3c2)cs1 [GW582764A]"
target_or_system = "HeLa cells"
recorded_measurement = -0.54

[[record]]
molecule = "N#Cc1ccc(CCNc2nccc(-c3cccc(CN4CCNCC4)c3)n2)cc1 [GSK2137462A]"
target_or_system = "HeLa cells"
recorded_measurement = 3.12

[[record]]
molecule = "COc1cccc(-n2nc(C)c3c(N/N=C(\\C)c4ccncc4)ncnc32)c1 [GW809885X]"
target_or_system = "HeLa cells"
recorded_measurement = -0.42

[[record]]
molecule = "c1ccc(-c2n[nH]cc2-c2ccnc(-c3ccc(CNC4CCOCC4)cc3)c2)nc1 [GW709213X]"
target_or_system = "HeLa cells"
recorded_measurement = -0.52

[[record]]
molecule = "Cc1cccc2c1NC(=O)C2=NNc1ccc(S(N)(=O)=O)cc1 [GW282536X]"
target_or_system = "HeLa cells"
recorded_measurement = -1.82

[[record]]
molecule = "CC(C)c1nc(-c2cccc(NS(=O)(=O)c3c(F)cccc3F)c2)c(-c2ccnc(Nc3ccc(N4CCOCC4)nc3)n2)s1 [GSK1723980B]"
target_or_system = "HeLa cells"
recorded_measurement = -1.58

[[record]]
molecule = "Cl.Cl.Cl.Fc1ccc(-c2ncn(C3CCNCC3)c2-c2ccnc(Nc3ccccc3)n2)cc1"
target_or_system = "HeLa cells"
recorded_measurement = -2.76

[[record]]
molecule = "COc1ccc(-c2oc3ncnc(N)c3c2-c2ccc(NC(=O)Nc3cc(C(F)(F)F)ccc3F)cc2)cc1 [GW768505A]"
target_or_system = "HeLa cells"
recorded_measurement = -1.99

[[record]]
molecule = "CC(=O)N1CCN(c2ccc(Nc3nccc(-c4sc(C(C)C)nc4-c4cccc(NS(=O)(=O)c5cccc(Cl)c5)c4)n3)cn2)CC1 [GSK1660437A]"
target_or_system = "HeLa cells"
recorded_measurement = 0.09

[[record]]
molecule = "COc1cc(Nc2ccnc3ccc(C(F)(F)F)cc23)cc(OC)c1OC [GW577382X]"
target_or_system = "HeLa cells"
recorded_measurement = -1.04

[[record]]
molecule = "COc1ccc(CNC(=O)NC2CCN(c3ccnc(Nc4ccc(F)cc4)n3)CC2)cc1 [GSK1379788A]"
target_or_system = "HeLa cells"
recorded_measurement = 1.46

[[record]]
molecule = "COc1ccc(Nc2nccc(NCCNC(=O)Nc3ccccc3F)n2)cc1 [GSK1379901A]"
target_or_system = "HeLa cells"
recorded_measurement = 0.44

[[record]]
molecule = "CCNC(=O)O[C@H]1CN[C@H](C#Cc2cc3ncnc(Nc4ccc(OCc5cccc(F)c5)c(Cl)c4)c3s2)C1 [GSK192082A]"
target_or_system = "HeLa cells"
recorded_measurement = -1.57

[[record]]
molecule = "Nc1ncc(-c2cccc(S(N)(=O)=O)c2)c2scc(-c3ccc(F)c(Cl)c3)c12 [GW856804X]"
target_or_system = "HeLa cells"
recorded_measurement = -0.49

[[record]]
molecule = "Fc1cc(Cl)ccc1Nc1ccnc2cc(I)ccc12 [GW551191X]"
target_or_system = "HeLa cells"
recorded_measurement = 1.37

[[record]]
molecule = "O=c1cc(N2CCOCC2)nc2n(Cc3cccc(Cl)c3)ccn12 [GSK2296823A]"
target_or_system = "HeLa cells"
recorded_measurement = 1.07

[[record]]
molecule = "O=C(Nc1n[nH]c2cc(-c3cccc(F)c3F)ccc12)C1CC1"
target_or_system = "HeLa cells"
recorded_measurement = 0.20

[[record]]
molecule = "Cc1cc(-c2ccnc(Nc3cccc(C#N)c3)n2)cc(C)c1O [GSK1440913A]"
target_or_system = "HeLa cells"
recorded_measurement = -0.32

